// UniProt Q9H4B7 IC50 records
EXPERIMENTAL ENDPOINT: IC50 (µM)

Reference set (2 entries):
1) COc1ccc(/C=C(/C)c2cc(OC)c(OC)c(OC)c2)cc1O | 0.13
2) COc1ccc(/C=C/C(=O)c2ccc(OC)c(OC)c2OC)cc1F | 7.9

(I) COc1ccc(/C=C\c2cc(F)c(F)c(F)c2)cc1O
(II) COc1ccc(COc2cc(OC)c(OC)c(OC)c2)cc1OCC=O
(III) COc1ccc(/C=C/C(=O)c2ccc(OC)c(OC)c2OC)cc1O
**Q:** Number of compounds to sort: 3. Sort criterion: IC50, ascending. In your reply, arrange the labels in the requested order.
**A:** III, I, II

---

molecular target: UniProtKB Q9H4B7
EXPERIMENTAL ENDPOINT: IC50 (µM)

Reference set (7 entries):
1) CCOc1cc(/C=C\c2ccc(OC)c(O)c2)cc(OCC)c1OCC | 0.5
2) CC/C(=C/c1ccc(OC)c(O)c1)c1cc(OC)c(OC)c(OC)c1 | 0.13
3) CCOc1cc(/C=C\c2ccc(OC)c(F)c2)cc(OCC)c1OCC | 1.2
4) COc1ccc(OCc2cc(OC)c(OC)c(OC)c2)cc1C=O | 0.56
5) COc1cc(/C=C\c2ccc(C)c(C)c2)cc(OC)c1OC | 2
6) COc1ccc(/C=C\c2ccc(C)c(C)c2)cc1O | 3.1
7) COc1ccc(/C=C\c2cc(OC)c(OC)c(OC)c2)cc1 | 0.2

(I) COc1ccc(CC(C)C(=O)c2cc(OC)c(OC)c(OC)c2)cc1O (stereo unspecified)
(II) COc1ccc(/C=C(\C)C(=O)c2cc(OC)c(OC)c(OC)c2)cc1F
(III) COc1ccc(OCc2cc(OC)c(OC)c(OC)c2)cc1O
**Q:** Number of compounds to sort: 3. Sort criterion: IC50, ascending. In your reply, arrange the labels in the requested order.
**A:** II, I, III

---

molecular target: Tubulin beta-1 chain (Homo sapiens)
Sequence (Q9H4B7 whole entry): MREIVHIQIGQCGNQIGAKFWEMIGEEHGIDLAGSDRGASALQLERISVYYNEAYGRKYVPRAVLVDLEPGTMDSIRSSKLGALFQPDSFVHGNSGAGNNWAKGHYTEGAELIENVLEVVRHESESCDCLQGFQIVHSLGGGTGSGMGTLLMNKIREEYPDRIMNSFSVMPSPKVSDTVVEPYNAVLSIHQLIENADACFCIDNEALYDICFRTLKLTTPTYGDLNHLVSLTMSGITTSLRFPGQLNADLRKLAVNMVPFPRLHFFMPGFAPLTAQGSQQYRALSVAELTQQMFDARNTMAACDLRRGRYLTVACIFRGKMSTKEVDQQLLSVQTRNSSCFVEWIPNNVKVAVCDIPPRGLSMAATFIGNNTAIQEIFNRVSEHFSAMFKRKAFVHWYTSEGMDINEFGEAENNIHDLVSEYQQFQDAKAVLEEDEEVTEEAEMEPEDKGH
pIC50: −log10 of the molar value.
EXPERIMENTAL ENDPOINT: pIC50

Reference set (7 entries):
1) COc1ccc(/C=C/C(=O)c2cc(OC)c(OC)c(OC)c2)cc1N | 5.70
2) CO/C(=C\c1ccc(OC)c(O)c1)C(=O)c1cc(OC)c(OC)c(OC)c1 | 6.29
3) COc1ccc(/C=C(\C)C(=O)c2cc(OC)c(OC)c(OC)c2)cc1O | 6.34
4) COc1ccc(/C=C\c2cc(O)c(OC)c(OC)c2)cc1F | 5.90
5) COc1ccc(/C(C)=C/c2cc(OC)c(OC)c(OC)c2)cc1O | 5.05
6) COc1ccc(/C=C\c2cc(C)c(C)c(C)c2)cc1F | 6.15
7) COc1ccc(/C=C(/C)c2cc(OC)c(OC)c(OC)c2)cc1 | 5.89

(A) COc1ccc(/C=C/C(=O)c2cc(OC)c(OC)c(OC)c2)cc1O
(B) COc1ccc(COc2cc(OC)c(OC)c(OC)c2)cc1O
(C) COc1ccc(/C=C\c2ccccc2)cc1O
**Q:** Order the records by pIC50, with each subsequent value no larger than the one before. In your reply, arrange the labels in the requested order.
**A:** A, C, B
